S. aureus UC-76: recorded MIC for assorted molecules
Note: unit µg/mL is implicit; provide only the numeric part.

Consider the following illustrative entries.
Lookup: MIC / S. aureus UC-76 / CC(=O)NC[C@H]1CN(c2ccc3c(c2)CCCc2c(-c4ccccc4)n[nH]c2-3)C(=O)O1
0.5

Moving on to Br.CC(=O)NC[C@H]1CN(c2ccc3c(c2)CCCc2sc(N)nc2-3)C(=O)O1
2

Moving on to CC(=O)NC[C@H]1CN(c2ccc3c(c2)CCCc2c-3nn(CCO)c2-c2ccncc2)C(=O)O1
16

Moving on to CC(=O)NC[C@H]1CN(c2ccc3c(c2)CCCc2cn(C)nc2-3)C(=O)O1
1

Moving on to O=C1O[C@@H](COc2ccon2)CN1c1ccc2c(c1)CCCc1cnoc1-2
4

Moving on to CC(=O)NC[C@H]1CN(c2ccc3c(c2)CCCc2cn[nH]c2-3)C(=O)O1
0.5

Moving on to CC(=O)NC[C@H]1CN(c2ccc3c(c2)CCCc2c(C)n[nH]c2-3)C(=O)O1
1

Proceeding to the next molecule to report its MIC.
Lookup: MIC / S. aureus UC-76 / CC(=O)NC[C@H]1CN(c2ccc3c(c2)CCCc2c(-c4ccncc4)n[nH]c2-3)C(=O)O1
2

---

S pyogenes C203: recorded MIC for assorted molecules
Give me the value, and tack the unit on after it.

Consider the following illustrative entries.
// returns reported MIC for input CC(=O)NC[C@H]1CN(c2ccc3c(c2)CCCc2c(C(F)(F)F)n[nH]c2-3)C(=O)O1 [Example 97]
0.5 µg/mL

Moving on to CC(=O)NC[C@H]1CN(c2ccc3c(c2)CCCc2cn[nH]c2-3)C(=O)O1 [Example 3]
0.125 µg/mL

Moving on to CC(C)(C)OC(=O)NC[C@H]1CN(c2ccc3c(c2)CCCc2cn[nH]c2-3)C(=O)O1 [Example 56]
4 µg/mL

Moving on to CC(=O)NC[C@H]1CN(c2ccc3c(c2)CCCc2c(-c4ccc(F)cc4)n[nH]c2-3)C(=O)O1 [Example 95]
0.5 µg/mL

Moving on to CC(=O)NC[C@H]1CN(c2ccc3c(c2)CCCc2cn(C)nc2-3)C(=O)O1 [Example 122]
0.5 µg/mL

New cases:
// returns reported MIC for input CC(=O)NC[C@H]1CN(c2ccc3c(c2)CCCc2c(C)n[nH]c2-3)C(=O)O1 [Example 99]
0.5 µg/mL

Moving on to O=C1O[C@@H](COc2ccon2)CN1c1ccc2c(c1)CCCc1cn[nH]c1-2 [Example 158]
1 µg/mL

Moving on to Br.CC(=O)NC[C@H]1CN(c2ccc3c(c2)CCCc2sc(N)nc2-3)C(=O)O1 [Example 186]
1 µg/mL

---

S. aureus UC-76: recorded MIC for assorted molecules
Note: unit µg/mL is implicit; provide only the numeric part.

Consider the following illustrative entries.
Lookup: MIC / S. aureus UC-76 / O=C1O[C@@H](COc2ccon2)CN1c1ccc2c(c1)CCCc1cn[nH]c1-2
1

Moving on to CC(C)(C)OC(=O)NC[C@H]1CN(c2ccc3c(c2)CCCc2cn[nH]c2-3)C(=O)O1
1

Moving on to O=C1O[C@@H](COc2ccccn2)CN1c1ccc2c(c1)CCCc1cnoc1-2
4

New cases:
Lookup: MIC / S. aureus UC-76 / CC(=O)NC[C@H]1CN(c2ccc3c(c2)CCCc2c(C(F)(F)F)n[nH]c2-3)C(=O)O1
1

Moving on to O=C1O[C@@H](COc2ccccn2)CN1c1ccc2c(c1)CCCc1cn[nH]c1-2
4

Moving on to CC(=O)NC[C@H]1CN(c2ccc3c(c2)CCCc2c(-c4ccc(F)cc4)n[nH]c2-3)C(=O)O1
4

Moving on to CC(=O)NC[C@H]1CN(c2ccc3c(c2)-c2oncc2CCC3)C(=O)O1
0.5

---

S pyogenes C203: recorded MIC for assorted molecules
Note: unit µg/mL is implicit; provide only the numeric part.

Consider the following illustrative entries.
// returns reported MIC for input CC(=O)NC[C@H]1CN(c2ccc3c(c2)CCCc2c(-c4ccncc4)n[nH]c2-3)C(=O)O1
0.25

Moving on to O=C1O[C@@H](COc2ccccn2)CN1c1ccc2c(c1)CCCc1cn[nH]c1-2
2

Moving on to CC(=O)NC[C@H]1CN(c2ccc3c(c2)-c2oncc2CCC3)C(=O)O1
0.125

Proceeding to the next molecule to report its MIC.
// returns reported MIC for input O=C1O[C@@H](COc2ccon2)CN1c1ccc2c(c1)CCCc1cnoc1-2
2

---

Endpoint label: melting point

// returns reported melting point for input O=C(NC[C@H]1CN(c2ccc3c(c2)CCCc2cn[nH]c2-3)C(=O)O1)C1CC1
224 to 227 °C

Moving on to Cl.NC[C@H]1CN(c2ccc3c(c2)CCCc2cn[nH]c2-3)C(=O)O1
201 to 223 °C

Moving on to CC(C)C(=O)NC[C@H]1CN(c2ccc3c(c2)CCCc2cnn(C(=O)C(C)C)c2-3)C(=O)O1
75 to 80 °C

Moving on to CCC(=O)NC[C@H]1CN(c2ccc3c(c2)CCCc2cn[nH]c2-3)C(=O)O1
233 to 235 °C

Moving on to O=C(NC[C@H]1CN(c2ccc3c(c2)CCCc2cnoc2-3)C(=O)O1)C1CC1
211 to 215 °C

Moving on to COC(=O)NC[C@H]1CN(c2ccc3c(c2)CCCc2cn[nH]c2-3)C(=O)O1
87 to 93 °C

Moving on to CC(=S)NC[C@H]1CN(c2ccc3c(c2)CCCc2cn[nH]c2-3)C(=O)O1
190 to 195 °C

Moving on to COC(=O)NC[C@H]1CN(c2ccc3c(c2)CCCc2cnoc2-3)C(=O)O1
166 to 168 °C

New cases:
// returns reported melting point for input CCOC(=O)NC[C@H]1CN(c2ccc3c(c2)CCCc2cn[nH]c2-3)C(=O)O1
122 to 126 °C

---

# System: S pyogenes C203
# MIC values compiled below
Note: unit µg/mL is implicit; provide only the numeric part.

Consider the following illustrative entries.
// returns reported MIC for input CC(=O)NC[C@H]1CN(c2ccc3c(c2)CCCc2c-3nn(CCO)c2-c2ccncc2)C(=O)O1 [Example 209]
4

Moving on to CC(=O)NC[C@H]1CN(c2ccc3c(c2)CCCc2c(-c4ccccc4)n[nH]c2-3)C(=O)O1 [Example 98]
0.5

Proceeding to the next compound to report its MIC.
// returns reported MIC for input O=C1O[C@@H](COc2ccccn2)CN1c1ccc2c(c1)CCCc1cnoc1-2 [Example 165]
2

---

# melting point values compiled below

Consider the following illustrative entries.
// returns reported melting point for input CC(=S)NC[C@H]1CN(c2ccc3c(c2)CCCc2cnoc2-3)C(=O)O1
185 to 195 °C

Moving on to Cl.NC[C@H]1CN(c2ccc3c(c2)CCCc2cnoc2-3)C(=O)O1
245 to 258 °C

Moving on to CC(C)C(=O)NC[C@H]1CN(c2ccc3c(c2)CCCc2cnoc2-3)C(=O)O1
187 to 193 °C

Moving on to CN(C)/C=C1/CCCc2cc(N3C[C@H](CNC(=O)OC(C)(C)C)OC3=O)ccc2C1=O (stereo in doubt)
157 to 160 °C

Moving on to O=C(NC[C@H]1CN(c2ccc3c(c2)CCCc2cnoc2-3)C(=O)O1)C(F)F
145 to 180 °C

New cases:
// returns reported melting point for input O=C(CC1CCCC1)NC[C@H]1CN(c2ccc3c(c2)CCCc2cnoc2-3)C(=O)O1
193 to 195 °C

Moving on to O=C(CC1CC1)NC[C@H]1CN(c2ccc3c(c2)CCCc2cnoc2-3)C(=O)O1
187 to 191 °C

Moving on to CC(C)(C)OC(=O)NC[C@H]1CN(c2ccc3c(c2)CCCc2cn[nH]c2-3)C(=O)O1 [Example 56]
85 to 100 °C

Moving on to O=C(CC(F)(F)F)NC[C@H]1CN(c2ccc3c(c2)CCCc2cnoc2-3)C(=O)O1
150 to 186 °C

---

# melting point values compiled below

Consider the following illustrative entries.
// returns reported melting point for input O=C(NC[C@H]1CN(c2ccc3c(c2)CCCc2cn[nH]c2-3)C(=O)O1)c1ccccc1
105 to 125 °C

Moving on to O=C(CC1CCCC1)NC[C@H]1CN(c2ccc3c(c2)CCCc2cn[nH]c2-3)C(=O)O1
205 to 208 °C

Moving on to O=C(CC1CCCC1)NC[C@H]1CN(c2ccc3c(c2)CCCc2cnn(C(=O)CC4CCCC4)c2-3)C(=O)O1
165 to 167 °C

New cases:
// returns reported melting point for input CCNC(=O)NC[C@H]1CN(c2ccc3c(c2)CCCc2cnoc2-3)C(=O)O1
193 to 196 °C

Moving on to O=C1O[C@@H](CNC(=O)C(F)(F)F)CN1c1ccc2c(c1)CCCc1cnoc1-2 (stereo in doubt)
203 to 205 °C

Each recorded value in this set is attributed to patent US20050288273A1.
